A collection of molecules and their measured pKi
Assay Target: human GlyT1c transporter (Homo sapiens, UniProt P48067)
Construct: expressed in transfected cells; host or cells: CHO cells (recombinant; line hGlyT1c_5_CHO is named for the uptake assay)
Sequence (P48067 1-706): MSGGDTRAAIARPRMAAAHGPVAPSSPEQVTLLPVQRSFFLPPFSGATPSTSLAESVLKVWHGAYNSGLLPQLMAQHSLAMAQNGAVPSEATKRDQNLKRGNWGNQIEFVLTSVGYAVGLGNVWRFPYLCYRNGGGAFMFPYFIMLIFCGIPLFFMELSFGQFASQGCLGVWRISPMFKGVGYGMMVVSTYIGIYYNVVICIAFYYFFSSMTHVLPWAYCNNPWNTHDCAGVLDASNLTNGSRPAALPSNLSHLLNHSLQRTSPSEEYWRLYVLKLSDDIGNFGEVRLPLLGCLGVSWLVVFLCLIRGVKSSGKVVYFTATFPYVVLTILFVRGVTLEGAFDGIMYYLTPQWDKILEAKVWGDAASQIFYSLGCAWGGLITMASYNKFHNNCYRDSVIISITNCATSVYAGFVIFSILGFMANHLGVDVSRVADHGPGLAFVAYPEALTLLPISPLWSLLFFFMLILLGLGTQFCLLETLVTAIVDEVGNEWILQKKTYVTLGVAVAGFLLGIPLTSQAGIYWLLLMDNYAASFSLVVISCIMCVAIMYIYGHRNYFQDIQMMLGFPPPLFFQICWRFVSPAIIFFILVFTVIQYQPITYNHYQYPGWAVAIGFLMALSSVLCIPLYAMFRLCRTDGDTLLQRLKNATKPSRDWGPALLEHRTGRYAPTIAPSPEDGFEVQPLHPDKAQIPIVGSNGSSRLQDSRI
Experiment Description: Radioligand binding assay using recombinant CHO cell membranes expressing human GlyT1
Condition Set: radioligand binding to human GlyT1c transporter-expressing membranes
pKi: −log10 of the molar value.

Known pKi results, listed for orientation:
CCS(=O)(=O)N1C[C@@H](NC(=O)c2cc(Cl)cc(Cl)c2)[C@H](c2ccccc2)C1 (relative stereo)    ≥ 5.00
Cn1cnc(S(=O)(=O)N2C[C@@H](COc3ccc(F)cc3)[C@H](c3ccc(F)cc3)C2)c1 (relative stereo)    ≥ 7.00
Cn1cnc(S(=O)(=O)N2C[C@@H](Nc3ccnc(F)c3)[C@H](c3ccc(F)cc3)C2)c1 (relative stereo)    ≥ 5.00
Cc1nn(C(C)C)cc1S(=O)(=O)N1CC(Nc2ccc(F)c(F)c2)C(c2ccccc2)C1 (centres unmarked)    ≥ 5.00

Consider the record given below.
So what pKi did "Cn1cnc(S(=O)(=O)N2C[C@H](Nc3cc(C4CC4)ncn3)[C@@H](c3ccccc3)C2)c1" get with human GlyT1c transporter (Homo sapiens, UniProt P48067)?
≥ 6.00
